# protocol details: folding stability dG unfold (combined trypsin and chymotrypsin); higher = more stable
Please use YES whenever folding stability dG unfold is not below 0.04 kcal/mol, and NO whenever it is.

>>> df
                                   residues  group_label
0  SAGGSAGGSGGVIDIPVYGEDGEKFIASAPKEVIEKAIKEGKPIEVYVVDDGKIIKKFTISTGSAGGSAGGS [r12_991_TrMRF]           NO

Please look at the following sequence next.
Could you please find out whether SAGGGSMYDPETGTLRDENGNFFRTEEKKIPEVVIELPIELPDNTTLVIPVKFRTEEEAEKAVEELLSAGGS [r8_440_JUSTAS] has folding stability dG unfold that meets 0.04 kcal/mol or exceeds it? NO
